system: Protein phosphatase EYA2 (Homo sapiens) (UniProt O00167)
Sequence (O00167 whole entry, looked up): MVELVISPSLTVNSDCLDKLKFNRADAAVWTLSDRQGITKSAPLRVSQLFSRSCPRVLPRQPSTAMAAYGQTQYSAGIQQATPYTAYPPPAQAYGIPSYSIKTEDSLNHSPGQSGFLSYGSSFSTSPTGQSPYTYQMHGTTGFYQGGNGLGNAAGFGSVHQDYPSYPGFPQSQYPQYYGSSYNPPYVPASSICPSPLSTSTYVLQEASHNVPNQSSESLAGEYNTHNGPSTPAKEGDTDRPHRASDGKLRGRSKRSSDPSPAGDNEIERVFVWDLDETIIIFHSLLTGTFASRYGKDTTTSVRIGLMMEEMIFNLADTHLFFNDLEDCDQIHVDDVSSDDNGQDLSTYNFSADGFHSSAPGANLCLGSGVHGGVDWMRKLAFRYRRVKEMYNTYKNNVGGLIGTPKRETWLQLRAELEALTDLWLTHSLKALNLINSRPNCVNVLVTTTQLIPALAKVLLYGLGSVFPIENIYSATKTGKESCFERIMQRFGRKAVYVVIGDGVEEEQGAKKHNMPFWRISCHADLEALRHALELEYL
assayRemarks: qHTS for Inhibitors of the Phosphatase Activity of Eya2: Confirmatory Assay for Cherry-picked Compounds; further: nearly all actives have a fitted effect of over 65% in size
condition: purified EYA2 phosphatase activity, qHTS confirmation; series mostly up to 46.1 µM
About 460 (35%) of roughly 1,300 compounds were called active. Not shown: some 39% with an inconclusive outcome. The call rests on the fitted dose curve; in most records, active means well fitted inhibition curve with a large enough effect; inconclusive means small, poorly fitted or top-dose-only effect; inactive means flat fitted curve, though single readings scatter. The list shows a part of the results.
In this exercise, the only acceptable responses are label 1 for active, label 0 for inactive

>>> class("Cc1c(C(=O)/C=C/N(C)C)nnn1-c1ccc(Cl)cc1Cl")
"label 0"
>>> class("CC1Cc2ccccc2N1C(=O)C1CCCN1S(=O)(=O)c1ccc(Cl)cc1 (stereo not given)")
"label 0"
>>> class("COc1ccccc1NC(=O)CCCCCN1C(=O)c2cccc3cccc(c23)C1=O")
"label 0"

Hi, sorry to bother you, what did the test record for Cc1ccc(S(=O)(=O)Nc2c(C)n(C)n(-c3ccccc3)c2=O)cc1C(=O)OC(C)C(=O)N(C)c1ccccc1 (stereo not given) ?
label 0

Look up the recorded call for CC1CCC(=NNc2ccc(C(F)(F)F)cc2[N+](=O)[O-])CC1 (stereo not given) in this test.
label 1

Entry source: PubChem BioAssay AID720540
